Please go through the items and note down their IC50.
testedSystem: Plasmepsin V (PmV) (Plasmodium falciparum, UniProt Q8I6Z5)
Construct: PmV was purified directly from parasites; made in house
Sequence (Q8I6Z5 whole entry): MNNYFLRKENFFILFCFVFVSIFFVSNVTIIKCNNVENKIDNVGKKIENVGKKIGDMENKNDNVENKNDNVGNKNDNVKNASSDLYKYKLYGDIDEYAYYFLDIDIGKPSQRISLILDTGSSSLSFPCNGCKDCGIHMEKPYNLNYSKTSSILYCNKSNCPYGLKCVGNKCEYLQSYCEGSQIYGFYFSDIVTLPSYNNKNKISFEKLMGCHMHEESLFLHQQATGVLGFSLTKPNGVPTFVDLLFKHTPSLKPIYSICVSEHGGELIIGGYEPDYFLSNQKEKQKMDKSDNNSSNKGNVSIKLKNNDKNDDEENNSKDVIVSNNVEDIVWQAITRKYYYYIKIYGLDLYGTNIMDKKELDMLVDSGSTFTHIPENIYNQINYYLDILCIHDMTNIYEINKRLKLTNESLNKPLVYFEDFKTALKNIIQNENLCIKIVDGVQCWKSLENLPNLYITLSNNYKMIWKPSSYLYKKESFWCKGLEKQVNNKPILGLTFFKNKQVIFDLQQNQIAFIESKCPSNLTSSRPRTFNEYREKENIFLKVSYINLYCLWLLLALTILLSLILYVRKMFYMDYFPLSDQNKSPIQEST
procedureDetails: PmV inhibition, fluorimetric PExEl cleavage assay
Format: biochemical
testConditions: 3 μM HRPII-PExEl substrate; averages of not less than three inhibition curves; read-out: IC50
Square brackets hold non-standard residues; d marks the D form. Peptide text beside a SMILES is read from it. * marks the point of attachment. Sta = CC(C)C[C@H](N)[C@@H](O)CC(=O)O; Isovaleryl = CC(C)CC(=O)*
Your answer is read as µM, so omit the unit and give the number.

[Q] Record request: IC50 value, item CC(C)C[C@H](NC(=O)[C@@H](N)CCCNC(=N)N)C(=O)N[C@@H](CC(C)C)[C@@H](O)CN[C@@H](Cc1ccc(O)cc1)C(=O)N[C@@H](CCC(=O)O)C(=O)N[C@@H](C)C(N)=O
[A] 0.00138

[Q] Record request: IC50 value, item Cc1cccc(C)c1OCC(=O)N[C@@H](Cc1ccccc1)[C@@H](O)C[C@H](Cc1ccccc1)NC(=O)[C@H](C(C)C)N1CCCNC1=O [Lopinavir, reference compound]
[A] 20.6

[Q] Record request: IC50 value, item CC(C)C[C@H](NC(=O)[C@@H](N)Cc1ccc(O)cc1)C(=O)N[C@@H](CC(C)C)[C@@H](O)CN[C@@H](C)C(=O)N[C@@H](CCC(=O)O)C(=O)N[C@@H](C)C(N)=O
[A] 4.68

[Q] Record request: IC50 value, item CC(C)C[C@H](NC(=O)[C@@H](NC(=O)[C@H](CCCNC(=N)N)NS(=O)(=O)Cc1ccccc1)C(C)C)[C@@H](O)CC(=O)NCCc1ccccc1 [WEHI916, reference compound]
[A] 0.0324

[Q] Record request: IC50 value, item CC(C)C[C@H](NC(=O)[C@@H](N)CCCNC(=N)N)C(=O)N[C@@H](CC(C)C)[C@@H](O)CN[C@@H](Cc1ccc(O)cc1)C(=O)N[C@@H](CCC(N)=O)C(=O)O [Compound 26a]
[A] 0.0174

[Q] Record request: IC50 value, item CC[C@H](C)[C@H](NC(=O)[C@@H](N)CCCNC(=N)N)C(=O)N[C@@H](CC(C)C)C(O)CN[C@@H](C)C(=O)N[C@@H](CCC(=O)O)C(=O)N[C@@H](C)C(N)=O (mixture of isomers)
[A] 0.00065

[Q] Record request: IC50 value, item CC(C)C[C@H](NC(=O)[C@@H](N)Cc1c[nH]c2ccccc12)C(=O)N[C@@H](CC(C)C)[C@@H](O)CN[C@@H](C)C(=O)N[C@@H](CCC(N)=O)C(=O)N[C@@H](C)C(N)=O [Compound 19a]
[A] 5.13

[Q] Record request: IC50 value, item CC(C)CC(=O)N[C@H](C(=O)N[C@H](C(=O)N[C@@H](CC(C)C)[C@@H](O)CC(=O)N[C@@H](C)C(=O)N[C@@H](CC(C)C)[C@@H](O)CC(=O)O)C(C)C)C(C)C [Pepstatin A, reference compound] (Isovaleryl-VV[Sta]A[Sta]-OH)
[A] 43.5

====

Please go through the items and note down their Ki.
Your answer is read as nM, so omit the unit and give the number.

[Q] Request: Ki, test system Plasmepsin V (PmV) (Plasmodium falciparum, UniProt Q8I6Z5), entry CC(C)C[C@H](NC(=O)[C@@H](N)CCCNC(=N)N)C(=O)N[C@@H](CC(C)C)[C@@H](O)CN[C@@H](Cc1ccc(O)cc1)C(=O)N[C@@H](CCC(N)=O)C(=O)O [Compound 26a]
[A] 9.35

[Q] Request: Ki, test system Plasmepsin V (PmV) (Plasmodium falciparum, UniProt Q8I6Z5), entry CC(C)C[C@H](NC(=O)[C@@H](N)CCCNC(=N)N)C(=O)N[C@@H](CC(C)C)[C@@H](O)CN[C@@H](Cc1ccc(O)cc1)C(=O)N[C@@H](CCC(N)=O)C(=O)N[C@@H](C)C(N)=O
[A] 6.8

[Q] Request: Ki, test system Plasmepsin V (PmV) (Plasmodium falciparum, UniProt Q8I6Z5), entry CC(C)C[C@H](NC(=O)[C@@H](N)CCCNC(=N)N)C(=O)N[C@@H](CC(C)C)[C@@H](O)CN[C@@H](C)C(=O)N[C@@H](CCC(N)=O)C(=O)N[C@@H](C)C(N)=O
[A] 0.83

[Q] Request: Ki, test system Plasmepsin V (PmV) (Plasmodium falciparum, UniProt Q8I6Z5), entry CCCCCCCC(=O)N[C@@H](CCCNC(=N)N)C(=O)N[C@@H](CC(C)C)C(=O)N[C@@H](CC(C)C)[C@@H](O)CN[C@@H](Cc1ccc(O)cc1)C(=O)N[C@@H](CCC(=O)O)C(=O)N[C@@H](C)C(N)=O [Compound 37a]
[A] 0.01

[Q] Request: Ki, test system Plasmepsin V (PmV) (Plasmodium falciparum, UniProt Q8I6Z5), entry CC(C)C[C@H](NC(=O)[C@@H](N)CCCNC(=N)N)C(=O)N[C@@H](CC(C)C)C(O)CN[C@@H](C)C(=O)N[C@@H](CCC(N)=O)C(N)=O (mixture of isomers)
[A] 6.94
